- System: Saccharomyces cerevisiae
- Assay Method Text: protein stability index of tFT-peptide fusion (C-terminal peptide) (PSI (0-1 scale)); higher = more stable (slower turnover)
- Experimental Parameters: genetic background: cdc53-1; temperature: 37 C
Note that class boundaries on protein stability index are range A (below 0.4), range B (0.4 to below 0.6), range C (0.6 or more)

Worked set:
{"Sequence Chain": "GESCGGSERRVG", "Label Value": "range C"}
{"Sequence Chain": "CVFFPFLGVCYV", "Label Value": "range B"}

Just checking, what class would you give FLSRHFLFLSFV here?
range B

Just checking, what class would you give LFFASFLLIGPF here?
range B

Just checking, what class would you give VRMMYSVQVWCG here?
range A

Just checking, what class would you give LFWTWVLVGVSV here?
range A

Just checking, what class would you give VFVFTFSLSFYC here?
range A

----------
- Test system: Saccharomyces cerevisiae
- Assay Method Text: protein stability index of tFT-peptide fusion (C-terminal peptide) (PSI (0-1 scale)); higher = more stable (slower turnover)
- Experimental Parameters: genetic background: wild type; temperature: 30 C
Assignment: determine reported protein stability index for the given sequences.
Numbers only.

{"Sequence Chain": "EKQYVKILDDTH [CSF1 C-terminal 12 aa]", "protein stability index": 0.695}
{"Sequence Chain": "IFVFFVIWVLVN [SED5 C-terminal 12 aa]", "protein stability index": 0.211}
{"Sequence Chain": "HLNESVYSKPLP [YIL028W C-terminal 12 aa]", "protein stability index": 0.678}
{"Sequence Chain": "RKAAERDNMLTT [CTL1 C-terminal 12 aa]", "protein stability index": 0.706}
{"Sequence Chain": "AAELRDISQCDV [OPI8 C-terminal 12 aa]", "protein stability index": 0.69}
{"Sequence Chain": "SLKNYHNNTAQA [DBP6 C-terminal 12 aa]", "protein stability index": 0.68}
{"Sequence Chain": "SLDITEDWEVIF [ROT2 C-terminal 12 aa]", "protein stability index": 0.759}
{"Sequence Chain": "IGEFADNVMPLA [PRY2 C-terminal 12 aa]", "protein stability index": 0.712}

For every item below, please supply its protein stability index.
1. EINNNLGVRLVD [DMA1 C-terminal 12 aa]
2. CIVNLASDTISL [YOL150C C-terminal 12 aa]
3. IYQPSRNRLVRY [YBR076C-A C-terminal 12 aa]

[0.697, 0.667, 0.702]

Please supply the value of reported protein stability index for the item KAFVEKLNSKKD [YBT1 C-terminal 12 aa]
0.683

----------
- Tested on: Saccharomyces cerevisiae
- Assay Method Text: protein stability index of tFT-peptide fusion (C-terminal peptide) (PSI (0-1 scale)); higher = more stable (slower turnover)
- Experimental Parameters: genetic background: wild type; temperature: 30 C
Observed Property: protein stability index
Numbers only.

{"Sequence Chain": "PPSSPPPPLPPS", "protein stability index": 0.712}
{"Sequence Chain": "GVFEGLVYGGLC", "protein stability index": 0.719}
{"Sequence Chain": "PPGQRGRRDRAA", "protein stability index": 0.647}

For every item below, please supply its protein stability index.
1. LSTYVLRTGSFP
2. EGRKTLWEGNRG
3. AIPRWLALLVAH
4. LPPPLPLPSRHY

0.677
0.609
0.241
0.671

For every item below, please supply its protein stability index.
1. RWCLWGTRVWVS
2. RGSAPLFVPLSP

0.147
0.711

----------
- Tested on: Saccharomyces cerevisiae
- Assay Method Text: protein stability index of tFT-peptide fusion (C-terminal peptide) (PSI (0-1 scale)); higher = more stable (slower turnover)
- Experimental Parameters: genetic background: wild type; temperature: 30 C
Observed Property: protein stability index
Answers are plain numbers.

Examples with their reported protein stability index follow.
{"Sequence Chain": "RARAIGVGSGRG", "Numeric Value": 0.698}
{"Sequence Chain": "RDSQSGVVVKGT", "Numeric Value": 0.726}
{"Sequence Chain": "GRYLIGKNKRVI", "Numeric Value": 0.687}
{"Sequence Chain": "SLPLPVFSFPCS", "Numeric Value": 0.653}

For every item below, please supply its protein stability index.
1. VRRGRQHLRYGR
2. PGLTAVVYRPAD
3. EEGARAAGGEPQ
4. TKDFVIKKTKIS
5. LVRFVLNKYRGR

1. 0.708
2. 0.724
3. 0.68
4. 0.169
5. 0.718

----------
Assignment: determine reported protein stability index for the given sequences.
- Tested on: Saccharomyces cerevisiae
- Assay Method Text: protein stability index of tFT-peptide fusion (C-terminal peptide) (PSI (0-1 scale)); higher = more stable (slower turnover)
- Experimental Parameters: genetic background: das1 deletion; temperature: 30 C
Numbers only.

Examples with their reported protein stability index follow.
{"Sequence Chain": "FSPLVCLLFFLF", "Tested System": "Saccharomyces cerevisiae", "protein stability index": 0.424}
{"Sequence Chain": "LPSPLLFLPALF", "Tested System": "Saccharomyces cerevisiae", "protein stability index": 0.667}

For every item below, please supply its protein stability index.
1. LLISPFLFLLVC
2. VVGVLLLYLNPF
3. RWCLWGTRVWVS
4. CFSVFSVLCFFV

[0.0907, 0.351, 0.444, 0.532]

For every item below, please supply its protein stability index.
1. RAFFLLYCTLWA
2. GFSSRWLMQYMV
3. CRRLCGWLFVCV
4. LLDIYFILLVWF

[0.163, 0.665, 0.387, 0.267]

----------
- Test system: Saccharomyces cerevisiae
- Assay Method Text: protein stability index of tFT-peptide fusion (C-terminal peptide) (PSI (0-1 scale)); higher = more stable (slower turnover)
- Experimental Parameters: genetic background: cdc34-1; temperature: 37 C
Use 0.5 as the dividing line for protein stability index, with the line itself on the 1 (yes) side and lower values as 0 (no).

Worked set:
{"Sequence Chain": "WVFVETVFLVCG", "Label Value": "0 (no)"}
{"Sequence Chain": "TKDFVIKKTKIS", "Label Value": "1 (yes)"}
{"Sequence Chain": "FSSWPFFSFYLS", "Label Value": "1 (yes)"}
{"Sequence Chain": "VVGVLLLYLNPF", "Label Value": "0 (no)"}
{"Sequence Chain": "GGYVTVTSVTVV", "Label Value": "1 (yes)"}
{"Sequence Chain": "WNSQGVFILAKC", "Label Value": "1 (yes)"}
{"Sequence Chain": "SVGCCLLCFFVL", "Label Value": "1 (yes)"}
{"Sequence Chain": "LFRFVFLLFGFW", "Label Value": "0 (no)"}
{"Sequence Chain": "CSFELSVCLMLR", "Label Value": "0 (no)"}
{"Sequence Chain": "LYFLLGSLVFVF", "Label Value": "0 (no)"}

Confirm if protein stability index reported for the sequence SIPVWTIELFAT is 0.5 or above.
1 (yes)

Confirm if protein stability index reported for the sequence CFSVFSVLCFFV is 0.5 or above.
1 (yes)

----------
- Test system: Saccharomyces cerevisiae
- Assay Method Text: protein stability index of tFT-peptide fusion (C-terminal peptide) (PSI (0-1 scale)); higher = more stable (slower turnover)
- Experimental Parameters: genetic background: wild type; temperature: 30 C
Use 0.7 as the dividing line for protein stability index, with the line itself on the 1 side and lower values as -1.

Worked set:
{"Sequence Chain": "DRRTLSLDLCGS", "Label Value": -1}
{"Sequence Chain": "AGRVGGFFFVVA", "Label Value": -1}
{"Sequence Chain": "EAIMNSLLFAVD", "Label Value": -1}
{"Sequence Chain": "TPVAPGLSPPPL", "Label Value": -1}
{"Sequence Chain": "ILFIVSSCGCVG", "Label Value": -1}

Confirm if protein stability index reported for the sequence GALPPPPARGDL is 0.7 or above.
1

Confirm if protein stability index reported for the sequence WNSQGVFILAKC is 0.7 or above.
-1

Confirm if protein stability index reported for the sequence AFPLFTDLTRVP is 0.7 or above.
1

Confirm if protein stability index reported for the sequence FSKSRLRNLKLK is 0.7 or above.
-1

Confirm if protein stability index reported for the sequence RMATGNPAPHPP is 0.7 or above.
1

Confirm if protein stability index reported for the sequence WLGTGIILPITG is 0.7 or above.
1

Confirm if protein stability index reported for the sequence ICSVHFLFFPLL is 0.7 or above.
-1

Confirm if protein stability index reported for the sequence KKNNNINKHTST is 0.7 or above.
-1

Confirm if protein stability index reported for the sequence CCGLYLGAGCAY is 0.7 or above.
-1

Confirm if protein stability index reported for the sequence SIRNNMKRVRKN is 0.7 or above.
-1

----------
- Test system: Saccharomyces cerevisiae
- Assay Method Text: protein stability index of tFT-peptide fusion (C-terminal peptide) (PSI (0-1 scale)); higher = more stable (slower turnover)
- Experimental Parameters: genetic background: wild type; temperature: 30 C
Use 0.7 as the dividing line for protein stability index, with the line itself on the Condition met side and lower values as Condition not met.

{"Sequence Chain": "LTLPSDSSALPA", "Label Value": "Condition met"}
{"Sequence Chain": "LYSSMFCGTFLL", "Label Value": "Condition not met"}
{"Sequence Chain": "SNAFWVRPFKIG", "Label Value": "Condition not met"}
{"Sequence Chain": "SSPLWDGLPRLT", "Label Value": "Condition met"}

Confirm if protein stability index reported for the sequence PPPPTPRPLLPP is 0.7 or above.
Condition not met

Confirm if protein stability index reported for the sequence KNRHWNKKIRKC is 0.7 or above.
Condition not met

Measured values drawn from the supplement of paper PMC10724198 for this set.
